assay info: soluble on expression in E. coli; label from the status in PepcDB or PDB records
readout kind: soluble on expression in E. coli

Some sequences with recorded soluble on expression in E. coli:
query sequence: MGSDKIHHHHHHMVGIGFRKDFAAKFLNTTDLQPDFIEVAPENWIGIGGLWKKRLQQALEKYPLYTHGLSLSIGSPDALDFDLLKGVKKFLAETGAKVYSEHLSYSKCDNAHLYDLLPIPFTHDAVKHIAKRIQTIQDFLERRLAIEIVSYYSPVAAEMSELEFVNAILQESDCDLLLDVNNIYVNGFNHNYDPYAFINQLPLERVAYIHIAGHDQVSETLIIDTHGEAIVDPVYYLYQYTMNQLQRDVPTLLERDFNIPQLSELQGEIDRLKKIKADCLTKELYGIQR
result: not soluble
//
query sequence: MSLCRFVAYLGRPTLLENVLVRPKNSIIMQSLHARETKYRTNGDGFGLGWYSPEVSSDPALFTSVYPAWNDRNLLHLTAKIQSPCFFAHVRSASAGGVTNYNCHPFIYGDWMLMHNGEINDFIDVKRHIRHLLDDDIYHWVKGQTDSEHLFGLFLQLAKGRDITQLSVAADVLQETINKILEVIGQFGHSGPSYFNICLTNGKKIIATRYCSHEKKKPLTLHYLIGYVLSTQGLWIKEEGNPAYVVVSSERLNDLDEGWEDVPPQHMILIDENKNIQLRPLQTLGEGHHHHHH
result: soluble
//
query sequence: GPGSMRSASAYGLDGQARSLCSLYHPSLNSQECHRFLIGTANPSADNKIHLIEYQDDTKSLECATVWSHNDPVMGLWCSPSLSADSLLAVSSLRKLVVFQISENVLNEPKCIATMNKNYSRVLWDLDGLQREFRAVHQNTLTTVFLSSSKLGSETVNYTSSGGFIRCAALAPYDPNLCLISCDSDGLQLVDLRSKKASSFATTKYSHGFGYTTAVDFDRLKPGQFLSAGTDGYVYIHDIRYNTSCSLAILRHMKAHEHAVQSCSFNSFRDELVLSCSSDQTLKLWDVEHNNEPKCLRRLADYGDSVVALCWSGNSPWVFAGLSFNGKLLVDTVPNEKKMSILLDEKKWCET
result: not soluble
//
query sequence: MSDIAPAAHSPYIPPTPEVGLPLWLLAELTYRCPLQCPYCSNPLDFARQGQELTTEQWFKVMQEAREMGAAQIGFSGGEPLVRQDLAELIAEARRLGFYTNLITSGIGLTEEKIIAFKKAGLDHIQISFQASDEQVNNMLAGSKKAFAQKLEMAKAVKKHGYPMVLNFVTHRHNIDRIDKIIELCLALEADFVELATCQFYGWAHLNRVGLLPTKDQLVRAEAVTNEYRDQLAAQDHPCKLIFVTPDYYEERPKACMNGWGNIFLTVTPDGTALPCHGARQMPIQFPNVREHSMQHIWYDSFGFNRFRGYDWMPEPCRSCDEKEKDFGGCRCQAFMLTGDAANADPVCSKSYHHGIITQARDESETATQTIEELAFRNDRNSRLIAKSS
result: not soluble
//
query sequence: MLKQPIQAQQLIELLKVHYGIDIHTAQFIQGGADTNAFAYQADSESKSYFIKLKYGYHDEINLSIIRLLHDSGIKEIIFPIHTLEAKLFQQLKHFKIIAYPFIHAPNGFTQNLTGKQWKQLGKVLRQIHETSVPISIQQQLRKEIYSPKWREIVRSFYNQIEFDNSDDKLTAAFKSFFNQNSAAIHRLVDTSEKLSKKIQPDLDKYVLCHSDIHAGNVLVGNEESIYIIDWDEPMLAPKERDLMFIGGGVGNVWNKPHEIQYFYEGYGEINVDKTILSYYRHERIVEDIAVYGQDLLSRNQNNQSRLESFKYFKEMFDPNNVVEIAFATEQLEHHHHHH
result: soluble

sequence AYQLYRNTTLGNSLQESLDELIQSQQITPQLALQVLLQFDKAINAALAQRVRNRVNFRGSLNTYRFCDNVWTFVLNDVEFREVTELIKVDKVKIVACDGKNTGSNTTE , soluble on expression in E. coli observed: soluble

sequence LVRSGRNITMQIIGYMTSHRKQHLEATDVAREFGYGREHFCRLFRKATGKTFKEFLTDLRLDDACRKLSGSSASIASIARECGFPDTRALQTAVQRKYGIRAQEYRERYENR , soluble on expression in E. coli observed: soluble

sequence GMSLAPWRGAIAHALHRNRSLVYARYLQLATVQPNGRPANRTLVFRGFLEDTNQLRFITDTRSAKADQIQQQPWAEICWYFPNTREQFRMAGDLTLISSDDSHQDLQPARIAMWQELSDAARLQFGWPYPGKPRIKESGAFEPSPPDPIEPVPNFCLLLLDPVQVDHLELRGEPQNRWLYHRNDQQEWSSEAINP , soluble on expression in E. coli observed: soluble

sequence MSLFHPEISGEWGAVKGDNIELLLNVDLSNPSPAPILLETIKVKLAGVKIGETKRANIAIFSRKVTIDSIINLDNLTTALINHIKEKEESTVSVYAKLELFDVIPVEYSRDVNFQTDLLSYLKNLRVEPKIYSIGGIPLKTPGIEGMDAKWGRVSNDSIEIIGWLKLYNPNSFPIPVTGLSADLYMNSVNIGKGVILKGTVLQPNSRGEVKVKLVLDVDNFKEAFKTHITNGERSTIRADINLVVKVGGVEYEIPIKDIETTFETDILGSIKFGEGHHHHHH , soluble on expression in E. coli observed: soluble

sequence MSLYQAIVFFDLDSTLFDDNKHVLPASVAAIHEMQQHHILPVIATGRNIFEIQYVLDGTGIDSVVGANGSYVQYQGQRLAAAVIAPELLTAVTSFAQRQHDPIAYYTSQGFRLSQANADTTENFQLLRLHPIVDPAWYATHQINFLNVFNRDHDQLYQEKFSGQLTFVRNNPRCLDTMVNGVTKQSGIRTLIQQAGLQGIKTYAFGDGYNDLQMFDEVDVPISMGNGVAAAKEKAAYVTTTNTTDGIVRGLRHFGLIQEGHHHHHH , soluble on expression in E. coli observed: soluble

sequence MGSDKIHHHHHHMNDRFVCSLIEKSDLSNFVKKHSKNVFYDIAKAEAAVHQQTIDTIHFHEVGAIDSIVDIVGFFILWEQLEIEQVYSTPITDGSGTITIAHGVMPIPVPAVMELRKETNLIIQQDFEIKTELVTPTGLAIFKELSPLFVAPEQRLIEKIGYGFGKRETGKFNALRGSIFTETHSKKKRTEHHDQVLKIETNIDNQTPEQLGYVMDLLLEHGALDVFFTPIHMKKNRSAILLTVLTTTEEKEYFTELLFKHTSTIGMRFQTMERSVMDRSFKILETPFGKVHIKKNHYHGLLKESIEYQDCERIAKQYNFTIEEVYRLVQTLNNKTID , soluble on expression in E. coli observed: not soluble
